target: DGKζ (Homo sapiens, UniProt Q13574); experiment: In vitro DGKζ inhibition assay (ADP-Glo); format: biochemical; conditions: His-tagged human recombinant enzyme; 0.4 nM DGKζ, 30 μM ATP, 20 μM DLG; 90 minute incubation; ADP-Glo luminescence
Sequence (Q13574 whole entry): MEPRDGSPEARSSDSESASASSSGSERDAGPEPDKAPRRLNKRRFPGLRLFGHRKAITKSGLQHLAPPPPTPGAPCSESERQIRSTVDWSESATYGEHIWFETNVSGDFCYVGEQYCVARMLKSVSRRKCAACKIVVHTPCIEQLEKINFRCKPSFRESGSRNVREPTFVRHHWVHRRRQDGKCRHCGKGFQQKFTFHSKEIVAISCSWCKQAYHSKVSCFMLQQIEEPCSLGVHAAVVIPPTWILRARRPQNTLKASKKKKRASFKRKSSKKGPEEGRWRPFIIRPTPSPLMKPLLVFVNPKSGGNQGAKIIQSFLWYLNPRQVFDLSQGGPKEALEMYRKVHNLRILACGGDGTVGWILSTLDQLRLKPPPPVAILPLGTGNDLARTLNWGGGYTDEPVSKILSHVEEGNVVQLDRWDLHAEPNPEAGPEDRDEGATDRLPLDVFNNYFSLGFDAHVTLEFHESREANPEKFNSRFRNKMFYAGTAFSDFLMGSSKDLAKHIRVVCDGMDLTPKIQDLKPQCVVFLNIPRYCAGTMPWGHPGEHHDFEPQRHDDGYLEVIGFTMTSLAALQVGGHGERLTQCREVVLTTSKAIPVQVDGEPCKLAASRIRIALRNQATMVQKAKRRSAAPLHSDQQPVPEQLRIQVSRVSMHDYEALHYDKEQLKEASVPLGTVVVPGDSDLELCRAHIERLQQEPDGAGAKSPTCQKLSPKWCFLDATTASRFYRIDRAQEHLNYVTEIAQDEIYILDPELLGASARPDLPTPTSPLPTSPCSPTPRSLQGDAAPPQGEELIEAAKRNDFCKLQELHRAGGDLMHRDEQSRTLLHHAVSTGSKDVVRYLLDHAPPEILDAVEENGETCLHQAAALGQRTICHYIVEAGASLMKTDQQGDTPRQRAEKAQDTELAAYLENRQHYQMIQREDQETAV
I'd appreciate it if you could supply IC50 values for the items below.

Reported IC50 (DGKζ (Homo sapiens, UniProt Q13574)) for entry F/C(=C\c1ccc(Oc2ccc(F)cc2F)c(C(F)(F)F)c1N1CCCC2(CCN(CC3CC3)CC2)C1)c1cncc(-c2ccnnc2)n1 is ≤ 0.02 µM

Reported IC50 (DGKζ (Homo sapiens, UniProt Q13574)) for entry F/C(=C\c1ccc(Oc2ccccc2F)c(C(F)(F)F)c1N1CCCC2(CCN(CC3CC3)CC2)C1)c1nccc(-c2cnsc2)n1 is ≤ 0.02 µM

Reported IC50 (DGKζ (Homo sapiens, UniProt Q13574)) for entry NC[C@H]1CCCN1c1c(/C=C(\F)c2nccc(-c3ccnnc3)n2)ccc(Oc2ccccc2)c1Cl is ≤ 0.02 µM

Reported IC50 (DGKζ (Homo sapiens, UniProt Q13574)) for entry F/C(=C\c1ccc(Oc2ccccc2F)c(C(F)(F)F)c1N1CCCC2(CCN(CC3CC3)CC2)C1)c1cncc(-c2ccnnc2)n1 is ≤ 0.02 µM

Reported IC50 (DGKζ (Homo sapiens, UniProt Q13574)) for entry CCN1CCC2(CC1)CN(c1c(/C=C(\F)c3cncc(-c4ccnnc4)n3)ccc(OC3CC3)c1C(F)(F)F)CCO2 is 0.02 to 0.2 µM

Reported IC50 (DGKζ (Homo sapiens, UniProt Q13574)) for entry [2H]c1c([2H])c([2H])c(Oc2ccc(/C=C(\F)c3cncc(N4CC(F)(F)C4)n3)c(N3CCCC4(CCN(CC5CC5)CC4)C3)c2C(F)(F)F)c([2H])c1[2H] is ≤ 0.02 µM

Reported IC50 (DGKζ (Homo sapiens, UniProt Q13574)) for entry F/C(=C\c1ccc(Oc2ccccc2)c(C(F)(F)F)c1N1CCOC2(CCN(CC3CC3)CC2)C1)c1nccc(-c2ccnnc2)n1 is ≤ 0.02 µM

Reported IC50 (DGKζ (Homo sapiens, UniProt Q13574)) for entry F/C(=C\c1ccc(OC2CCCCC2)c(C(F)(F)F)c1N1CCCC2(CCN(CC3CC3)CC2)C1)c1cncc(-c2ccnnc2)n1 is ≤ 0.02 µM

Reported IC50 (DGKζ (Homo sapiens, UniProt Q13574)) for entry CCN1CCC2(CCCN(c3c(/C=C(\F)c4nccc(-c5ccnnc5)n4)ccc(OC4CCCC4)c3C(F)(F)F)C2)CC1 is ≤ 0.02 µM

Reported IC50 (DGKζ (Homo sapiens, UniProt Q13574)) for entry NC[C@@H]1CCCN(c2c(/C=C(\F)c3cncc(-c4ccns4)n3)ccc(Oc3ccccc3F)c2C(F)(F)F)C1 is ≤ 0.02 µM

Reported IC50 (DGKζ (Homo sapiens, UniProt Q13574)) for entry CCN1CCC2(CCCN(c3c(/C=C(\F)c4nccc(-c5ccnnc5)n4)ccc(Oc4ncccc4F)c3C(F)(F)F)C2)CC1 is ≤ 0.02 µM

Reported IC50 (DGKζ (Homo sapiens, UniProt Q13574)) for entry F/C(=C\c1ccc(Oc2ccccc2F)c(C(F)(F)F)c1N1CCCC2(CCN(CC3CC3)CC2)C1)c1cncc(-c2cnsc2)n1 is ≤ 0.02 µM

Reported IC50 (DGKζ (Homo sapiens, UniProt Q13574)) for entry CCN1CCC2(CC1)CN(c1c(/C=C(\F)c3cncc(-c4ccnnc4)n3)ccc(Oc3ccccc3F)c1C(F)(F)F)CCO2 is ≤ 0.02 µM
